tested on: Full length human CD40 (huCD40) on cells (human, UniProt P25942 21-277)
Sequence (P25942 21-277): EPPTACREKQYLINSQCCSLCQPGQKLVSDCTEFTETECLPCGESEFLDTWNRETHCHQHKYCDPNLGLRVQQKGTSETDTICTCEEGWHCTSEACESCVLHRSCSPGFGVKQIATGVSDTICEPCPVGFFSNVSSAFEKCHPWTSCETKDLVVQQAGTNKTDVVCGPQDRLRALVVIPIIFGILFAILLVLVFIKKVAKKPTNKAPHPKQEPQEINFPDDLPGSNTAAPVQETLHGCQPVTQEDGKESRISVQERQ
test details: cell-based or functional assay
property name: EC50, Human B cells (CD83) (ng/mL)
Please respond with the number in ng/mL and leave the unit unwritten.

**Query** Param item = C40M105 (antibody, human IgG1, lambda, V domains shown) VH: QLQLQESGPGLVKPSETLSLTCTVSGGSISSSSYYWGWIRQPPGKGLEWIGNIYYRGDTYYSPSLKSRVTISVDTSKNQFSLKLSSVTAADTAVYYCARGFRFDYWGQGTLVTVSS VL: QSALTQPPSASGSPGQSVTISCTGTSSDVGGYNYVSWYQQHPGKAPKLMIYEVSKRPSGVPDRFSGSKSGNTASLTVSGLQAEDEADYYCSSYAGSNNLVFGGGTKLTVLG ; retrieve measured EC50, Human B cells (CD83).
**Result** 2.82

Recorded values, source patent US20170088624A1.
